Known melting point of a selection of compounds

Take a look at these entries with their results.
>>> result("CCOP(=O)(OCC)c1cc2cc(S(=O)(=O)Cl)c(Cl)cc2[nH]c1=O")
"190 to 200 °C"
>>> result("S=C(NCCc1cccc(Cl)c1)Nc1nc2ccccc2[nH]1")
"171 to 177 °C"
>>> result("COc1nc2cc([N+](=O)[O-])c(C)c(C(=O)Nc3ccc(C)cc3)c2nc1OC")
"214 to 215 °C"
>>> result("N#Cc1c(N2CCc3ccccc3CC2)nc(=O)[nH]c1OCC(F)(F)F")
"196 to 198 °C"
>>> result("CCOCc1nc2c(N)nc3ccccc3c2n1CCC(N)=O")
"> 250 °C"

Qu. Read off the recorded melting point for CCNC(=O)NCc1ccc(/C=C/C(c2cc(Cl)c(Cl)c(Cl)c2)C(F)(F)F)c2ccccc12 (configuration not stated)
Ans. 84 to 87 °C

Qu. Read off the recorded melting point for Cc1oc(C(C)C)cc1C(=O)O
Ans. 88.5 °C

Qu. Read off the recorded melting point for CCOC(=O)CN1C(=O)COc2cc(N)ccc21
Ans. 136 to 137 °C

Qu. Read off the recorded melting point for COc1cc2c(cc1OC)C(c1cccc(Cl)c1)=NN=C(C)C2
Ans. 166 to 168 °C

Qu. Read off the recorded melting point for O=C(COc1cc(-c2ccc([N+](=O)[O-])cc2)nc2ccccc12)N1CCOCC1
Ans. 172 °C

Qu. Read off the recorded melting point for Cc1nc(N(C)C)nc(N)c1-c1cc(Cl)cc(Cl)c1Cl
Ans. 151 to 153 °C

Qu. Read off the recorded melting point for CN(O)C(=O)c1ccc(NCCCc2ccccc2)cc1
Ans. 107 to 108 °C

Qu. Read off the recorded melting point for O=S(=O)(Nc1cccc(OCCc2ccc3ccccc3c2)c1)c1cccc2ccccc12
Ans. 165 to 167 °C

Qu. Read off the recorded melting point for O=C(c1nc(Cl)c(Cl)[nH]1)N1CCOCC1
Ans. 215 °C

Qu. Read off the recorded melting point for COc1cc(OC)nc(N=C=S)n1
Ans. 85 to 86 °C

Qu. Read off the recorded melting point for CCN(CC)CC1CN=C(N)O1 (configuration not stated)
Ans. 90 °C

Qu. Read off the recorded melting point for CCCc1nc2c(N)nc(C)c(C)c2n1CC1(O)CCCCC1
Ans. 214 to 216 °C

Qu. Read off the recorded melting point for N#CCCNC(=O)c1ccnc(-c2cccc3oc(Cc4cccc(C(F)(F)F)c4)cc23)c1
Ans. 114 to 115 °C

Qu. Read off the recorded melting point for COC[C@H]1CN(c2ccc([C@H]3CC[C@H](C#N)CC3)cc2)C(=O)O1
Ans. 174 °C

Qu. Read off the recorded melting point for CCOC(C)n1c(C(=O)C(F)(F)F)nc(-c2ccc(OC)cc2)c1-c1ccc(OC)cc1 (configuration not stated)
Ans. 124 to 126 °C

Qu. Read off the recorded melting point for Cc1cccc(-c2nc3ccc(OCCCl)cc3n2Cc2ccccc2)c1
Ans. 88 °C

Qu. Read off the recorded melting point for O=C(O)c1cc(Cl)cc2c1NC(c1ccccc1)CC2 (configuration not stated)
Ans. 199 to 200 °C

Qu. Read off the recorded melting point for CNC(=O)c1cc(Br)cc(-c2ccccc2)c1
Ans. 132 °C

Qu. Read off the recorded melting point for O=C(Cc1ccccc1)c1ccncc1
Ans. 94 to 96 °C

Qu. Read off the recorded melting point for CC(=O)OCc1nc2cc(Cl)c(CBr)cc2c(=O)[nH]1
Ans. 190 to 195 °C

Qu. Read off the recorded melting point for CCOC(=O)c1nn(-c2ccc(Cl)cc2Cl)c(-c2ccc(Cl)cc2)c1C
Ans. 124 °C

Qu. Read off the recorded melting point for C=CCOc1cc(Br)ccc1C(=O)OC
Ans. 62 °C

Qu. Read off the recorded melting point for CN1CCN(C2CCCc3nc4ccccc4c(N)c32)CC1 (configuration not stated)
Ans. 200 to 202 °C

----------
Known melting point of a selection of compounds

Take a look at these entries with their results.
>>> result("N#Cc1c(Cl)cccc1C(Br)Br")
"120 °C"
>>> result("Cc1cc2c(c3ccc(=O)[nH]c13)OC(CSCCN)C2 (stereo unspecified)")
"182 to 184 °C"

Qu. Read off the recorded melting point for Nc1ncnc2c1ncn2Cc1nc2cc(F)ccc2c(=O)n1-c1ccccc1Cl
Ans. 217 °C

Qu. Read off the recorded melting point for CCCCCCCCCCNC(=O)C=Cc1cccc(N2CC(C(=O)OCCN(CC)CC)CC2=O)c1 (stereo unspecified)
Ans. 78 to 80 °C

Qu. Read off the recorded melting point for CN(C)Cc1ccc2cc(NC(=O)c3ccc(-c4ccc(Cl)cc4)cc3)ccc2n1
Ans. 219 to 221 °C

Qu. Read off the recorded melting point for O=C1CNc2cc(Cl)ccc2N1
Ans. 171 to 174 °C

Qu. Read off the recorded melting point for COc1cc2oc(C(=O)O)cc2cc1Cl
Ans. 283 °C

Qu. Read off the recorded melting point for CCc1ccccc1-n1c(=O)[nH]c2c(C(N)=O)nc(-c3cccc(O)c3)nc21
Ans. 355 to 357 °C

Qu. Read off the recorded melting point for CC(=O)OCC1OC(n2cnc3c(-n4cnc(-c5ccccc5)c4-c4ccccc4)nc(Cl)nc32)C(OC(C)=O)C1OC(C)=O (stereo unspecified)
Ans. 146 °C

Qu. Read off the recorded melting point for COC(=O)c1cc(Cl)c(N)c2c1OCC2
Ans. 135 °C

----------
property_name: melting point (°C)
// return numeric value only (unit: °C, not printed)

>>> result_number("CNc1c([N+](=O)[O-])ccc(Sc2ccccc2)c1Cl")
79
>>> result_number("CC(=O)OCCCN(C)CCCN(C)C(=O)[C@@H]1CCCN1S(=O)(=O)c1ccc(Cl)c(COc2cccc3c(-n4ccnc4)cc(C)nc23)c1Cl")
90
>>> result_number("CCCCCCCCCCCCCCCc1cc(=O)c2c(O)cc(O)cc2o1")
108

Moving on to the next compound.
Qu. Read off the recorded melting point for O=C(O)Cc1cccc(C(=O)c2cc3cc(C(=O)O)sc3s2)c1
Ans. 283

----------
property_name: melting point

>>> result("N#Cc1cc(-c2c3ccccc3cc3sc4ccccc4c23)cc(C#N)c1OCC(=O)O")
"134 to 136 °C"
>>> result("CC(C)(C)OC(=O)COc1ccc(-c2c(Cl)c(CN3C(=O)CCC3=O)nc3sc4c(c23)CCSC4)cc1")
"191 to 192 °C"
>>> result("CC(=O)SCC(Cc1ccccc1)C(=O)Nc1cccc(C(=O)NCC(=O)OCc2ccccc2)c1 (stereo not drawn)")
"122 to 123 °C"

Qu. Read off the recorded melting point for CN1CCC(c2ccc(Oc3ccccc3)cc2)(C(C)(C)O)CC1
Ans. 148 °C

Qu. Read off the recorded melting point for CCc1c2nc(-c3cc(S(C)(=O)=O)ccc3OCC(C)C)[nH]c(=O)c2nn1CCN1CCOCC1
Ans. 268 to 273 °C

Qu. Read off the recorded melting point for COC(=O)C[C@]1(C)C[C@@H](COc2ccc(-c3ccc(C#N)cc3)cc2)NC1=O
Ans. 105 to 108 °C

Qu. Read off the recorded melting point for Cc1nc(N2N=C(c3ccc([N+](=O)[O-])cc3)c3cc4c(cc3CC2C)OCO4)no1 (stereo not drawn)
Ans. 191 to 200 °C

Qu. Read off the recorded melting point for CCOP(=O)(/C=C/c1cn(-c2ccccc2)nc1OCc1ccc(OCc2nc(-c3ccc(CC(=O)O)cc3)oc2C)c(OC)c1)OCC
Ans. 119 to 120 °C

----------
Known melting point of a selection of compounds

>>> result("COc1ccc(CNc2cc(-c3cc4cc(F)c(F)cc4[nH]3)ccc2OC)cc1")
"173 to 175 °C"
>>> result("Cc1nsc(N(C)C(=O)C2CCCCC2)n1")
"96 °C"
>>> result("COc1cc2c(Nc3ccc(Sc4nccn4C)c(Cl)c3)c(C#N)cnc2cc1N1CCC(N2CCCCC2)CC1")
"221 to 223 °C"
>>> result("O=C1NC(=O)C(=Cc2ccc(C(=O)CCc3ccccc3)cn2)S1")
"> 250 °C"
>>> result("CO[C@@H]1CNCC[C@H]1NC(=O)c1cccc(C(F)(F)F)c1 (relative stereo)")
"100 °C"
>>> result("NC(=O)c1c(Cl)cc(Cl)c(OCC(=O)O)c1Cl")
"261 to 262 °C"
>>> result("COC(=O)NC(CCc1ccc(Cl)cc1)C(=O)O (centres undefined)")
"113 to 114 °C"
>>> result("O=C1c2ccccc2C(=O)N1CCCC=NNc1ccc(S(=O)(=O)Nc2ccccc2)cc1")
"126 to 129 °C"
>>> result("COc1cccc([C@]23CCN(C)C[C@@H]2CCC2(C3)OCCO2)c1 (relative stereo)")
"124 to 126 °C"
>>> result("Cc1onc(C(=O)c2ccccc2Cl)c1N")
"75 to 78 °C"

Qu. Read off the recorded melting point for CCOCCOCc1ccc(-c2ccc3c(c2)C=C(C(=O)Nc2ccc(CN(C)C4CCOCC4)cc2)CCS3(=O)=O)cc1
Ans. 184 to 186 °C

Qu. Read off the recorded melting point for N=C(NO)c1cccc(-c2ccc(O)c(-c3nc4cc(C(=N)NO)ccc4[nH]3)c2)c1
Ans. 352 to 355 °C

Qu. Read off the recorded melting point for O=C(NCCN1CCN(c2ncccn2)CC1)NC12CC3CC(CC(C3)C1)C2
Ans. 170 to 171 °C
